B1: CAMK2A (parent)
chain: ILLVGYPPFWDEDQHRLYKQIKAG

Variants of: B1
Experiment: protein stability index of a GFP-peptide fusion (GPS, HEK-293T) (PSI 1-6); higher = more stable;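 also: lentivirally expressed fusions sorted by FACS into six bins by GFP to DsRed ratio, PSI derived from sequencing read proportions per bin multiplied by bin number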
Details: c terminus: a fixed tail appended
MEASURED ENDPOINT: protein stability index

GET /value?item= `I21R` &field=protein stability index returns 2.05

Item: `K19G` | protein stability index: 3.31

The reported protein stability index of the variant `L3A` was 1.65

// protein stability index lookup, variant = `G24V` , result: 2.81

Looking up `I1S` , I see its protein stability index listed as 2.33

According to the records, this variant `I21Y` displays protein stability index of 1.84

// `F9A` : protein stability index value = 1.65

The variant identified as `G24Q` registered its protein stability index at 3.66

The reported protein stability index of the variant `Q20V` was 3.11

response.value for `P8V` (field: protein stability index) = 2.96

Looking up `K19I` , I see its protein stability index listed as 2.67

Looking up `R16V` , I found its protein stability index recorded as 2.67

Lab note: `I21V` gave protein stability index of 1.89

Value of protein stability index reported for the variant `P7Y` is 4.41

Entry `L2S` ; protein stability index = 1.75

Per the records, this variant ( `A23Q` ) has protein stability index equal to 2.82
